# assayInfo: molar heat capacity at constant pressure
# testSettings: 308.15 K; 6000 kPa; Liquid; Small sample (50 mg) DSC
Form field: molar heat capacity at constant pressure (one value per entry).
Just the number in J/K/mol, nothing appended.

Please review the following examples before continuing.
[[record]]
molecule = "CCCCCCn1cc[n+](C)c1.F[B-](F)(F)F [1-hexyl-3-methylimidazolium tetrafluoroborate]"
recordedresult = 435.13

[[record]]
molecule = "CCCCn1cc[n+](C)c1.F[B-](F)(F)F [1-butyl-3-methylimidazolium tetrafluoroborate]"
recordedresult = 370.5

[[record]]
molecule = "CCCCCCCC[n+]1ccn(C)c1.F[B-](F)(F)F [1-methyl-3-octylimidazolium tetrafluoroborate]"
recordedresult = 506.54


Proceed to the following item.
Prompt: Reported molar heat capacity at constant pressure, molecule CCn1cc[n+](C)c1.F[B-](F)(F)F [1-ethyl-3-methylimidazolium tetrafluoroborate] : ____
Completion: 308.46

Ref: the NIST ThermoML archive (doi:10.1021/je9004992)
